- System: HCC-2998 colon
- Method summary: NCI tumour cell line growth inhibition, 48 h
Endpoint name: TGI (µM)
Give the value in µM but do not write µM after it.

Examples from the recorded data:
1) COC(=O)c1cc2c(cc1Cl)Sc1nnc(Nc3ccc(C)cc3)n1S2(=O)=O = 17.5
2) CN(C)CCNc1ccc(CO)c2oc3ccc(O)cc3c(=O)c12 = 27.9
3) Cc1nnc(NS(=O)(=O)c2ccc(N=Nc3cc(N=Nc4ccc(S(=O)(=O)Nc5nnc(C)s5)cc4)c4c(NC(=O)C(Cl)Cl)cccc4c3OC(=O)C(Cl)Cl)cc2)s1 (tested in a mixture with another compound) = 62.1
4) O=C(c1ccco1)N(C(=S)OCCOc1ccccc1)c1ccccc1 = 37.9
5) COC(=O)[C@@]12C(=O)C=CC(=O)C1C1C(=CC2C)OC2OC3(CCCCC3)OC21 (stereo not given in full) = 28.2
6) COc1cc2c3c(n(CCCN)c(=O)c2cc1OC)-c1ccc(C#N)cc1C3=O = 15
7) COc1ccc(-c2[nH]c3ccc(OC)cc3c2/C=C(\C#N)S(=O)(=O)c2ccccc2)cc1 = 5.87

Continue with the next compound.
Exercise: Which TGI value is on record for CC(=O)O[C@H]1C(=O)[C@@]2(C)[C@H]([C@H](OC(=O)c3ccoc3)[C@]3(O)C[C@H](OC(=O)[C@H](O)[C@@H](NC(=O)c4ccccc4)c4ccccc4)C(C)=C1C3(C)C)[C@]1(OC(C)=O)CO[C@@H]1C[C@@H]2O ?
Solution: 0.998

----------
- Test system: K-562 leukemia
- Method summary: NCI tumour cell line growth inhibition, 48 h; in the data active = GI50 below about 0.43 µM; inactive = the rest
Pick one and only one: active, inactive

Worked examples, 5 compounds total:
1. COc1cc2ncnc(-n3ncc4cc(NC(=O)Nc5ccccc5)ccc43)c2cc1OC = inactive
2. Cc1cc(C(=O)Nc2ccc3cc(CN4CCOCC4)ccc3n2)c(C)n1-c1ccccc1 = inactive
3. Cc1cc2ncnn2cc1Nc1ncc2c(n1)n(C1CCOCC1)c(=O)n2C = inactive
4. CC/C=C\C[C@H](O)C/C=C1/C(=O)C=C[C@@H]1C/C=C\CCCC(=O)OC = inactive
5. CCOC(=O)C1CCN(S(=O)(=O)/N=C2/NC(=O)NC2=C(Cl)Cl)CC1 = inactive

Pending compound:
Exercise: # fetch the recorded call for COc1ccc(C(=O)c2cc(C)c(OC)c(C)c2)c(OC)c1O here
Solution: active

----------
- Test system: TK-10 renal
- Method summary: NCI tumour cell line growth inhibition, 48 h
# Lookup of reported TGI keyed by entry

Examples from the recorded data:
1) CCCCNC1CCCCC[C@H]1O (stereo partly specified) = > 100 µM
2) O=C1C2C3C=C4c5ccccc5N(c5ccccc5)C4(C2C(=O)N1c1ccc([N+](=O)[O-])cc1)[C@H]1C(=O)N(c2ccc([N+](=O)[O-])cc2)C(=O)[C@@H]31 (stereo partly specified) = > 100 µM
3) Cc1cc(C)c(NC(=O)c2sc3nc4c(cc3c2N)C(=O)CCC4)c(C)c1 = > 87.9 µM

Exercise: Which TGI value is on record for CCOC(=O)CC(C)C1(C(=O)OCC)CCCCC1=O (stereo unspecified) ?
Solution: > 100 µM

Exercise: Which TGI value is on record for COc1ccc(C(=O)c2cc(C)c(OC)c(C)c2)cc1OC(=O)CCl ?
Solution: > 100 µM

Exercise: Which TGI value is on record for CN=C(SC)N(C)c1nc(=[N+](C)C)ss1 ?
Solution: > 100 µM
